experiment: Intrinsic clearance in human liver microsomes assessed per mg of protein at 100 uM after 30 mins by LC-MS/MS analysis; format: ADME, microsome; conditions: read-out: CLH
MEASURED_PARAMETER: microsomal CLint at 100 µM

Request: For the compound CN1CC[C@H](c2c(O)cc(O)c3c(=O)cc(/C=C/c4c(Cl)cccc4Cl)oc23)[C@H](O)C1 , give its measured microsomal CLint at 100 µM value.
Result: < 8.6 µL/min/mg

====

test system: Liver; assay: Intrinsic clearance in dog liver S9 fraction assessed per mg of protein preincubated for 5 mins followed by NADPH addition measured after 30 mins by LC-MS/MS analysis; type: ADME, tissue-based, Canis lupus familiaris; conditions: s9, 0.5 h
MEASURED_PARAMETER: CLint
Returns: string containing the numeric result and its unit.

Request: For the molecule CN1CC[C@H](c2c(O)cc(O)c3c(=O)cc(/C=C/c4c(Cl)cccc4Cl)oc23)[C@H](O)C1 , give its measured CLint value.
Result: 12 µL/min/mg

Data credit: ChEMBL document CHEMBL4043283
